Please provide measured apparent KD of MS2 coat protein for the entries that follow.
System: MS2 coat protein
experiment: apparent KD of MS2 coat protein; higher = weaker reporter binding
test.context: Eterna round: R107; input ligand: theophylline 20 uM
The reply should contain only the number, in nM.

Exercise: Any idea what apparent KD of MS2 coat protein was measured for AACGUAUACAGAAGGAGCGUGAAUUAUAUUACUCAUUCUUAUACAUGAGGAUCACCCAUGUCACAGGUAGGUCGCUGUAUUCGUA [JR_ExcArginiB_Sub019] ?
Solution: 91.9

Exercise: Given the entry UCGUUGAAGUCGGCCGCCACUGAACUCAUGUUCAACAUGAGGAUCACCCAUGUACCUUAUUUUAACAGGACCGGGACUUUGACGA [JR_ExcTryptoB_Sub002] , report its measured apparent KD of MS2 coat protein.
Solution: 229

Exercise: Fill in the blank: the reported apparent KD of MS2 coat protein of UGUAACAUGAGGAUCACCCAUGUGAGUGAUACCAGACUAGUGUUAGUCCCUUGGCAGCACGCUGGACGAAUGUGUAGUCUAUGCG [Same State - Theophylline A (Freestyle 19)] is ____.
Solution: 108

Exercise: # lookup: apparent KD of MS2 coat protein of UGUAUGGACUGAAGGAGCGGGUAAAUAACCUGAGGAUCACCCAGGUAAAAGGCGAAAGCCACCCAGGUAGGUCGCAGUCCAUACU
Solution: 13.7

Exercise: Requested field: apparent KD of MS2 coat protein. Item: GAUGAACUAUUUGAUACCAGACCACAUGAGGAUCACCCAUGUGAGUUUCGUCCUUAGCCGGUCCCUUGGCAGCAAAUAGUUUAUC [#27 Exclusion-TheophyllineB]
Solution: 24.1

Exercise: Bench note: what apparent KD of MS2 coat protein did UGUAUGUGAUCUGAUACCAGUCCAACUGGUAAAACUUGAGGAUCACCCAGGUAAAAUUGGGACCCUUGGCAGCAGAUCGCAUACU show?
Solution: 597
